EXPERIMENTAL_SYSTEM: EPHB1 (UniProt P54762)
Sequence (P54762 whole entry, looked up): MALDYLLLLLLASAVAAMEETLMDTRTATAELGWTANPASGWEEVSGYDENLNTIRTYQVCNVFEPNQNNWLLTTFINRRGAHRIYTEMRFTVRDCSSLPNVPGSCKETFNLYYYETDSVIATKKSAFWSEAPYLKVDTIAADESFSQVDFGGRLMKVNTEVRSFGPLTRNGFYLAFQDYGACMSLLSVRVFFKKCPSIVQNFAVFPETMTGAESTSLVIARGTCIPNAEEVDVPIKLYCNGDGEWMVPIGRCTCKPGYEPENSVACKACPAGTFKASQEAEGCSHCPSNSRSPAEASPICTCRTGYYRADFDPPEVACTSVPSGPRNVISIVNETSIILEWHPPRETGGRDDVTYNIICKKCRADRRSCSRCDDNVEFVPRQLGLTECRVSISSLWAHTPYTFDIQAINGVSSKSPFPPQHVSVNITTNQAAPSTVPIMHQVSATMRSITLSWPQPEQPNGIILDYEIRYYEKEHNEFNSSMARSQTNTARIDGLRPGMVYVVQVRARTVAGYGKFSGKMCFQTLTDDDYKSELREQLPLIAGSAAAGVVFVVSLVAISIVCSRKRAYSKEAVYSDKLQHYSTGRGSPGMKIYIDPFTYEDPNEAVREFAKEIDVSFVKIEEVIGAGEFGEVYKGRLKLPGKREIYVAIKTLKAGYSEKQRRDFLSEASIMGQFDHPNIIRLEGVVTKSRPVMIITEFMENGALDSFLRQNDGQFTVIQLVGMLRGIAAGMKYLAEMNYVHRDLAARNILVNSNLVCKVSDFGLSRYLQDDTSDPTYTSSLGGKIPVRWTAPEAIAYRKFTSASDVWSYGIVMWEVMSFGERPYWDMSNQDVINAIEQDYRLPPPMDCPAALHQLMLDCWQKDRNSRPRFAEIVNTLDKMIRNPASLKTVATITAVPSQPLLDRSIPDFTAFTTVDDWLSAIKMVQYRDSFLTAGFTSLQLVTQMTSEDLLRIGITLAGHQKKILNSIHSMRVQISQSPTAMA
PROTOCOL_DESCRIPTION: phosphorylation enrichment, bacterial display (enrichment ratio); higher = better substrate or ligand; peptides without Tyr show the background;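 also: 11-residue human phosphosite peptides and single-mutation variants displayed on the E. coli surface, counted by deep sequencing, each peptide's frequency after selection divided by its frequency in the unselected input library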;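 also: frequency after pTyr selection over input frequency; kinase dosed for 20-30% of maximal phosphorylation in three min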
Respond with Satisfied for phosphorylation enrichment values of 0.5 and above, Not satisfied for values below.

Query: Record LEIETYPRLLD [KRT12_Y429_R430P] ; criterion: phosphorylation enrichment no lower than 0.5. Met?
Reply: Satisfied

Query: Thanks! And LSVEIHDRREY [ITGB7_Y753_Y753H] ?
Reply: Satisfied

Query: Thanks! And GINDDHGQLKN [NBN_Y679_Y679H] ?
Reply: Not satisfied

Query: Thanks! And RLDRSYSYSYS [PEAR1_Y890] ?
Reply: Not satisfied

Query: Thanks! And AAVLNYKAWRD [GRIN2A_Y737_G740W] ?
Reply: Not satisfied

Query: Thanks! And SHLSAYPALEG [CD5_Y465] ?
Reply: Not satisfied

Query: Thanks! And PKEQRYSFLQN [GH1_Y68_K67R] ?
Reply: Satisfied

Query: Thanks! And QNAGDYFDLFG [PTPN11_Y62_T59A_YF] ?
Reply: Satisfied

Query: Thanks! And IVEYAYNDKAV [PUM3_Y259_I264V] ?
Reply: Satisfied

Query: Thanks! And SEPDLYYDPRG [PKP1_Y160_C161Y] ?
Reply: Satisfied

Query: Thanks! And KDKLPYLYDDP [GPX2_Y125_P126L] ?
Reply: Satisfied

Query: Thanks! And AGVDRYSLGTS [C5orf42_Y1451_P1446A] ?
Reply: Not satisfied

Query: Thanks! And GLAELYEYQKK [CKAP5_Y1854_K1857Q] ?
Reply: Satisfied

Query: Thanks! And CTTIHYHFMCN [TP53_Y234_N235H_YF] ?
Reply: Satisfied

Query: Thanks! And FQKNSYSEELR [LMNA_Y211_I210S] ?
Reply: Not satisfied

Query: Thanks! And SHSMRYFDTSV [HLA-C_Y31_A35S] ?
Reply: Not satisfied

Query: Thanks! And PFRSIYFSSPK [MPG_Y75_YF] ?
Reply: Not satisfied

Query: Thanks! And CPEARYNRSPI [PTAR1_Y42] ?
Reply: Not satisfied

Query: Thanks! And HLVSEYQQFQD [TUBB3_Y422_D417H_YF] ?
Reply: Satisfied

Query: Thanks! And DERQPYVHMNG [IGF1R_Y1346_A1347V] ?
Reply: Not satisfied

Query: Thanks! And HNLDFYKETTN [FGFR3_Y648_K650E_YF] ?
Reply: Satisfied

Query: Thanks! And TMEDSYRKQVV [KRAS_Y40_I36M] ?
Reply: Satisfied

Query: Thanks! And RNAAEYLLSSG [ABL1_Y139] ?
Reply: Not satisfied

Query: Thanks! And NYYDTCIKTCL [IQGAP2_Y1445_Y1445C] ?
Reply: Satisfied

Query: Thanks! And FASTGYVIAIQ [GRIN2B_Y762_G763V] ?
Reply: Satisfied

Query: Thanks! And AALVQYFMEHH [PTPN11_Y80_E76A_YF] ?
Reply: Satisfied

Query: Thanks! And GLIPAYHWVIM [NMNAT1_Y64_R66W] ?
Reply: Satisfied
